Provenance of the data: patent US6699877B2

Form field: inhibition at 10 µM (one value per entry).
# target.under.test: glycine binding site of the NMDA receptor channel (Rattus norvegicus, UniProt P35439)
# Construct: from tissue; host or cells: rat brain cortex and hippocampus membrane homogenate
# measurement.notes: Receptor binding, displacement of (3H)-MDL 105.519 on rat cerebral membrane homogenates
# particulars: 10 μmol/l test substance; 1 nmol/l (3H)-MDL 105.519; read-out: Displacement (%, 10 μmol/l) of radioactive ligand from specific binding
Write it as a number; the unit % goes unstated.

O=C(O)C1CC(c2cccc(Cl)c2)c2c(Cl)cc(Cl)cc2N1 (centres unmarked) [Example 98] : 51
COc1ccc(C2c3cc(C#N)ccc3NC(C(=O)O)C2c2ccc(OC)cc2)cc1 (centres unmarked) [Example 94] : 55
COc1cc(C2c3cc(SC)ccc3NC(C(=O)O)C2C)ccc1O (centres unmarked) [Example 93] : 44

Record request: inhibition at 10 µM value, item O=C(O)C1CC(c2ccc(F)cc2)c2c(Cl)cc(Cl)cc2N1 (centres unmarked) [Example 31]
58

Record request: inhibition at 10 µM value, item CCOC(=O)C1CC(c2ccccc2C)c2c(Cl)cc(Cl)cc2N1 (centres unmarked) [Example 16]
35

---

Form field: inhibition at 10 µM (one value per entry).
# target.under.test: glycine binding site of the NMDA receptor channel (Rattus norvegicus)
# Construct: from tissue; host or cells: rat brain cortex and hippocampus membrane homogenate
# measurement.notes: Receptor binding, displacement of (3H)-MDL 105.519 on rat cerebral membrane homogenates
# particulars: 10 μmol/l test substance; 1 nmol/l (3H)-MDL 105.519; read-out: Displacement (%, 10 μmol/l) of radioactive ligand from specific binding
Write it as a number; the unit % goes unstated.

CCOC(=O)C1CC(c2ccccc2Br)c2cc(Cl)ccc2N1 (stereo not drawn) : 22
CCOC(=O)C1CC(c2ccc(C)cc2C)c2c(Cl)cc(Cl)cc2N1 (stereo not drawn) : 26
Cc1ccc(C2CC(C(=O)O)Nc3cc(Cl)cc(Cl)c32)c(C)c1 (stereo not drawn) : 68

Form field: inhibition at 10 µM recorded for Cc1cccc(C2CC(C(=O)O)Nc3cc(Cl)cc(Cl)c32)c1 (stereo not drawn) with glycine binding site of the NMDA receptor channel (Rattus norvegicus) (enter value)
51

Form field: inhibition at 10 µM recorded for O=C(O)C1CC(c2ccc(Br)cc2)c2cc(Cl)cc(F)c2N1 (stereo not drawn) with glycine binding site of the NMDA receptor channel (Rattus norvegicus) (enter value)
61

Form field: inhibition at 10 µM recorded for CCOC(=O)C1CC(c2ccc(C)cc2)c2c(Cl)cc(Cl)cc2N1 (stereo not drawn) with glycine binding site of the NMDA receptor channel (Rattus norvegicus) (enter value)
26

Form field: inhibition at 10 µM recorded for CCOC(=O)C1CC(c2ccc(Cl)cc2)c2c(Cl)cc(Cl)cc2N1 (stereo not drawn) with glycine binding site of the NMDA receptor channel (Rattus norvegicus) (enter value)
32

Form field: inhibition at 10 µM recorded for O=C(O)C1CC(c2cccc(F)c2)c2c(Cl)cc(Cl)cc2N1 (stereo not drawn) with glycine binding site of the NMDA receptor channel (Rattus norvegicus) (enter value)
78

Form field: inhibition at 10 µM recorded for O=C(O)C1CC(c2ccc(Cl)cc2)c2c(Cl)cc(Cl)cc2N1 (stereo not drawn) with glycine binding site of the NMDA receptor channel (Rattus norvegicus) (enter value)
39

---

# target.under.test: glycine binding site of the NMDA receptor channel (Rattus norvegicus, UniProt P35439)
# Construct: from tissue; host or cells: rat brain cortex and hippocampus membrane homogenate
# measurement.notes: Receptor binding, displacement of (3H)-MDL 105.519 on rat cerebral membrane homogenates
# particulars: 10 μmol/l test substance; 1 nmol/l (3H)-MDL 105.519; read-out: Displacement (%, 10 μmol/l) of radioactive ligand from specific binding
measured.parameter: inhibition at 10 µM
Answer with the value and then the unit.

Here's what some known entries look like.
N#Cc1ccc2c(c1)C(c1ccccc1Cl)CC(C(=O)O)N2 (stereo not drawn) : 30%
CCOC(=O)C1CC(c2ccccc2F)c2c(Cl)cc(Cl)cc2N1 (stereo not drawn) : 43%

As a next step, examine the compound that follows.
Form field: inhibition at 10 µM recorded for O=C(O)C1CC(c2ccccc2Cl)c2c(Cl)cc(Cl)cc2N1 (stereo not drawn) with glycine binding site of the NMDA receptor channel (Rattus norvegicus, UniProt P35439) (enter value)
92%
